Reference source for all entries: paper PMC6222848

Biological target: T1, GST-tagged mouse ZO-1(PDZ1) (residues 18–110) (mouse, UniProt P39447 18-110)
T1 construct: zonula occludens 1 (ZO-1), mouse, first PDZ domain, residues 18-110; The methods say that the GST fusion proteins were used for the SPR analysis; also called first PDZ domain of zonula occludens 1; wild-type; source: E. coli BL21 (DE3), purified (glutathione-Sepharose FF), dialyzed
T1 sequence (looked up): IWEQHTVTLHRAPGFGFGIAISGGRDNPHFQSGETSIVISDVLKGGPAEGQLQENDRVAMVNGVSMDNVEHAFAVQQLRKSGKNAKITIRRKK
Experiment: SPR; BIACORE-3000; Trx-CLD3 peptide immobilized on a CM5 chip, PDZ domain as analyte (0 to 100 ug/mL), 20 uL/min; 10 mM HEPES pH 7.4, 150 mM NaCl, 3 mM EDTA, 0.005% Surfactant P20; KD by 'Affinity from steady-state'; no phytic acid
Conditions: both partners purified
recorded-endpoint: Kd
State the value, then name its unit.

// GTAYDRKDYV (domain or fragment, UniProt Q9Z0G9 210-219, looked up, claudin-3 (CLD-3), mouse, C-terminus, residues 210-219; also called Trx-CLD3 peptide; CLD-3 peptide; source: E. coli BL21 (DE3), purified (Ni2+-chelating-Sepharose), dialyzed) [His6-tagged thioredoxin (Trx) fusion protein of mouse CLD-3 C-terminus (Trx-CLD3, residues 210–219)] : Kd value = 0.17 µM
